- test.protocol: soluble on expression in E. coli; label from the status in PepcDB or PDB records
quantity.kind: soluble on expression in E. coli

MGSDKIHHHHHHADNNKWKPLFGKNLENANYNPEVWSETDGVLGAVKDESIWTKDEYENFELDLDFKTDVGTNSGVVVYCTDTKDWIPNSVEIQIADDHCEKWGNGKPYEKCGAIYGHLGAVQDKVVKKPGEWNHMRIKCAGQHIMVILNGKKVTEMDMSKWTSGTKNPDGSDIPSWLPKPFAELPTKGFIGLQGKHGDSLIWFRNIKIRSL; not soluble
MALSKIDTEIEQVDQEKYLRQATSYYQPLEKPLKYGPEVNSLSDLVAALHREFESNYVNIEMVNHLMLSYKSNPREWRKYAKFDRYTYTRNLVDAGNGKFNLLILCWGEGHGSSVHDHADSHCFMKMLKGDLREKRYEYPNRSARDNGRSHHPDGEIDSRELVEIGETPIAVNDVAYINDNLGLHRVENPSHSDTSVSLHLYCPPFDTCSVFQDNLKKTTAKVTFWSKYGVRTKQNEQLEHHHHHH; not soluble
MNAIIFCLLFTTVTATYEVFGKGIEHRNEHLIINQLDIIPVESTPTPNRASRVQKRLCGRRLILFMLATCGECDTDSSEDLSHICCIKQCDVQDIIRVCCPNSFRK; not soluble

###

- test.protocol: soluble on expression in E. coli; label from the status in PepcDB or PDB records
quantity.kind: soluble on expression in E. coli

MFHVKLTLTTMLDTMNSSAHRPVVVADVDTGIDDALAITYLGYLHRRGLIELRITTSAGNCTAEQAAANSAEIMNSLTLSDVPITPGAPKPRALPLTTTPETHGPTGLGYHTTRATIPQLSNAAAAVDLWKGADYLLVAGPATNVAWAAENAPEVLNAIPHVTFMTGAFHYPGNTTPTAEWNAWVDPHALKEALAHYRGHAVRPTICPLNVTESVLLTPQRLKQWCQRSQEPVLPILSDALRFYFEFHESVGVGYMAQIHDLAAAMVLLNRVPHTTRPGFVDVEADAELTRGTTVVDWDSNYGDHPANAQILTALQSEDVFAEFERVVLEY; not soluble
MGSDKIHHHHHHMNDLPLADLDAFATIARLRNFRAAGKLRGVSASSLSEAMRRLEARVGVRLLNRTTRSVTLTDAGARLLERLSPTLADIELALDDINQFRERPFGRLRLNVPGIVARCVLPPVVTGFLAAYPDILLEVTVNDALIDVLAEGCDAGIRYEEALHQDMIAVPIGPRRQRYVCVAAPSYLEQYGRPEHPRDLIHHRSILHRFNSGRVNEWHFEREGEAINVSPPPRLIAETVDLELAAVRAGLGMMGTFEDFVIEDLNAGRLERVLTDWEDEFSGPFLYYHSRRHMPVPLRVFVDYIRQHGDPG; not soluble
MEIPSYASNIQPYGSQSGTKIASENDNAKSVSLSGDNSRSVSRTDKLSEHFSEQVRARQQESAETAMAQAKQRQRLNEEQLAKMVEQMNEFVKSINKGLSFRLDRESGREVVTIYEASTGDIIRQIPEEEMLEVLRRLAREQDHRSGLLMAKV; not soluble

###

- test.protocol: soluble on expression in E. coli; label from the status in PepcDB or PDB records
quantity.kind: soluble on expression in E. coli

MGSDKIHHHHHHMADFNQYTRWEHQMHGVKLPRWDDLPKFDLYMDQVTALINDVLGPLGIDTVTPAMINNYVKHNVIMAPVKKKYQTMQLTDILMISLLKPMFQTDTVRSGIDQITAGDYPKQAYDNFIGQLEDRLHHLGEDQVQPAAQNLNEKLMQVAVDTVVSRLQSEKLLRLIKRPLRKIEKK; not soluble
MIQMSSNDSSEVIRQCLQVLESITSDSSVPRNIRRSVNEIMDILNNESEPLFLRAASSISILEDISNDPNLPLHTRTLIWNLSSQLETIPVDE; not soluble
